- MEASURED ON: Glutathione peroxidase 1 (Homo sapiens) (UniProt P07203)
- Sequence (P07203 whole entry, looked up): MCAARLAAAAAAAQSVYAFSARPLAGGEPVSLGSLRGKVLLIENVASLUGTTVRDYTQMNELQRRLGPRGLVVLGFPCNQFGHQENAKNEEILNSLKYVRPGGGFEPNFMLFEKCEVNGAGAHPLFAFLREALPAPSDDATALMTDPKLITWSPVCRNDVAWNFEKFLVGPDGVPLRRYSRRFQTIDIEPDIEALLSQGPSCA
- EXPERIMENT DESCRIPTION: Primary qHTS Assay for Inhibitors of Recombinant Selenoprotein Glutathione Peroxidase 1 (GPX1) (AID 1845191); also: nearly all actives have a fitted effect of over 65% in size
- STATED CONDITIONS: recombinant GPX1, GR-coupled NADPH fluorescence, 15 min; series mostly up to 48.8 µM
- Procedure: Assay Provider: Elias S.J. Arner MD PhD. Department of Medical Biochemistry and Biophysics Karolinska Institutet, Solna, Stockholm, Sweden […] 5; Detection; Fluorescence; ViewLux microplate reader, excitation 340 nm and emission 450 nm. […] 7; Detection; Fluorescence; ViewLux microplate reader, excitation 340 nm and emission 450 nm. […] 5. Initial fluorescence readout (t=0) at 340/450 nm was measured using a ViewLux multimodal detector (PerkinElmer, Waltham, MA). […]
Inconclusive results are not listed. Activity calls are given as the source filed them. Calls follow the shape of the dose curve; as a rule, active = well fitted inhibition curve with a large enough effect; inconclusive = small, poorly fitted or top-dose-only effect; inactive = flat fitted curve, though single readings scatter.
MEASURED PROPERTY: outcome

Would you please look over these solved cases?
Returns the measured outcome for the input compound. Input: NC(=O)c1ccc2nc(-c3ccc(C4(N)CCC4)cc3)c(-c3ccccc3)n2n1 inactive

Consider the compound CC[C@H]1OC(=O)[C@H](C)[C@@H](O[C@H]2C[C@@](C)(OC)[C@@H](O)[C@H](C)O2)[C@H](C)[C@@H](O[C@@H]2O[C@H](C)C[C@H](N(C)C)[C@H]2O)[C@](C)(OC)C[C@@H](C)C(=O)[C@H](C)[C@@H](O)[C@]1(C)O and give its measured outcome. inactive

Entry under review: Cc1ccc(Nc2nnc(Cc3ccncc3)c3ccccc23)cc1Br . Reported outcome? inactive

Name the reported outcome value associated with the compound NCCNc1ccc(NCCN)c2c1C(=O)c1ccncc1C2=O inactive

Name the reported outcome value associated with the compound CCC[C@H](NC(=O)[C@@H]1[C@H]2CCC[C@H]2CN1C(=O)[C@@H](NC(=O)[C@@H](NC(=O)c1cnccn1)C1CCCCC1)C(C)(C)C)C(=O)C(=O)NC1CC1 inactive

Each of the following entries comes with a recorded value; kindly state outcome for each.
1. CC1(C)C(/C=C/C=C/C=C/C=C2/N(CCCCS(=O)(=O)O)c3ccc4ccccc4c3C2(C)C)=[N+](CCCCS(=O)(=O)[O-])c2ccc3ccccc3c21
2. Nc1ccc(F)cc1NC(=O)c1ccc(CNC(=O)/C=C/c2cccnc2)cc1

1: inactive; 2: inactive

====

- MEASURED ON: Rap guanine nucleotide exchange factor 3 (Homo sapiens)
- EXPERIMENT DESCRIPTION: Confirmatory qHTS for antagonist of cAMP-regulated guanine nucleotide exchange factor 3 (EPAC1) (AID 1645880); also: nearly all actives have a fitted effect of over 55% in size
- STATED CONDITIONS: EPAC1 Rap1B-BODIPY-GDP exchange, fluorescence; series mostly up to 115 µM
Results filed as inconclusive are left out. Active and inactive are the calls of the source. Calls come from the whole dose curve; as a rule, active = well fitted inhibition curve with a large enough effect; inconclusive = small, poorly fitted or top-dose-only effect; inactive = no such curve, though single readings can be large or run the other way.
Your answer must be one of the following: yes for active, no for inactive

Please review the entries below; each comes with its answer.
So what was the verdict on CC1CCN(C(=O)CSc2nnc(CN3CCOCC3)n2-c2ccccc2)CC1 in this test? no

For this compound, state the assay outcome: Cc1[nH]c2ccccc2c1C(=O)C(C)OC(=O)c1ccc(Cl)nc1 (stereo unspecified) no

Recorded test outcome, item CCCCCC1CCC(c2ccc(C(N)=O)cc2)CC1 (stereo unspecified) no

New cases:
Identify the outcome logged in this assay for the compound shown: CC(=O)NC(CCS(C)(=O)=O)C(=O)Nc1cc(C)on1 (stereo unspecified) no

Would you mind telling me which call this test gave COC(=O)c1ccc(/C=C2\CCn3c2nc2cc(C(=O)O)ccc2c3=O)cc1 ? no

Hi, sorry to bother you, what did the test record for CCCN1C(=O)c2[nH]nc(-c3ccccc3)c2C1c1cccc(O)c1 (stereo unspecified) ? no

# fetch the recorded call for Cc1nc(SCC(=O)N2CCCCCC2)[nH]c(=O)c1C here no

Which outcome did this test record for the compound Cc1ccc(S(=O)(=O)Nc2ccccc2N2CCCCC2)cc1 ? no

Short answer needed: outcome of this test for CC(=O)NC(c1ccco1)c1cc(Cl)c2cccnc2c1O (stereo unspecified) ? no

Look up the recorded call for Cc1ccc(C2=NOC(=O)/C2=C\c2ccc(C)o2)cc1 in this test. yes

What did this assay record as the result for CC(=O)NC(c1ccc(C)cc1)c1cc(Cl)c2cccnc2c1O (stereo unspecified) ? no

====

- Tested on: CP194
- EXPERIMENT DESCRIPTION: qHTS profiling for inhibitors of Plasmodium falciparum proliferation (AID 504749); also: nearly all actives have a fitted effect of over 60% in size; also: potency is read from the fitted curve at half-maximal effect
- STATED CONDITIONS: P. falciparum in erythrocytes, SYBR Green DNA, 72 h; series mostly up to 12.8 µM
Results filed as inconclusive are left out. Activity calls are given as the source filed them. Calls follow the shape of the dose curve; as a rule, active = well fitted inhibition curve with a large enough effect; inconclusive = small, poorly fitted or top-dose-only effect; inactive = flat fitted curve, though single readings scatter.
MEASURED PROPERTY: Potency

Give CP194 Potency for CCCCC[C@H](O)/C=C\[C@H]1[C@H](C/C=C\CCCC(=O)O)[C@@H](O)C[C@H]1O (tested in a mixture with another compound) inactive

Lookup: Potency / CP194 / CC1(C)S[C@H]2C(NC(=O)[C@@H](N)c3ccc(O)cc3)C(=O)N2[C@@H]1C(=O)O (stereo not given in full) inactive

What is its Potency for CP194? Entry: COc1ccc([C@@H]2CC(=O)c3c(O)cc(O[C@H]4O[C@@H](CO[C@H]5O[C@@H](C)[C@@H](O)[C@@H](O)[C@@H]5O)[C@@H](O)[C@@H](O)[C@@H]4O)cc3O2)cc1O inactive

What value of Potency on CP194 does C[C@@H]1O[C@H](O[C@@H]2\C=C/C=C\C=C/C=C\C[C@H](C)OC(=O)/C=C\[C@H]3O[C@@H]3C[C@H](O)C[C@]3(O)C[C@@H](O)[C@@H](C(=O)O)[C@H](C2)O3)[C@@H](O)[C@H](N)[C@@H]1O (stereo in doubt) have? inactive

// for each compound in input: emit Potency
1. Cc1onc(-c2ccccc2Cl)c1C(=O)N[C@H]1C(=O)N2[C@H]1SC(C)(C)[C@H]2C(=O)O
2. CCCC[C@H](CC)CN1CN(C[C@@H](CC)CCCC)CC(C)(N)C1
3. CC(C)(C)NC[C@H](O)COc1cccc2c1CCC(=O)N2
4. Clc1ccc(CC[C@H](Cn2ccnc2)Sc2c(Cl)cccc2Cl)cc1
5. NCc1ccccc1CC(=O)N[C@@H]1C(=O)N2C(C(=O)O)=C(CSc3nnnn3CC(=O)O)CS[C@@H]12

inactive
inactive
inactive
6.42 µM (active)
inactive

====

- MEASURED ON: Rap guanine nucleotide exchange factor 3 (Homo sapiens) (UniProt O95398)
- Sequence (O95398 whole entry, looked up): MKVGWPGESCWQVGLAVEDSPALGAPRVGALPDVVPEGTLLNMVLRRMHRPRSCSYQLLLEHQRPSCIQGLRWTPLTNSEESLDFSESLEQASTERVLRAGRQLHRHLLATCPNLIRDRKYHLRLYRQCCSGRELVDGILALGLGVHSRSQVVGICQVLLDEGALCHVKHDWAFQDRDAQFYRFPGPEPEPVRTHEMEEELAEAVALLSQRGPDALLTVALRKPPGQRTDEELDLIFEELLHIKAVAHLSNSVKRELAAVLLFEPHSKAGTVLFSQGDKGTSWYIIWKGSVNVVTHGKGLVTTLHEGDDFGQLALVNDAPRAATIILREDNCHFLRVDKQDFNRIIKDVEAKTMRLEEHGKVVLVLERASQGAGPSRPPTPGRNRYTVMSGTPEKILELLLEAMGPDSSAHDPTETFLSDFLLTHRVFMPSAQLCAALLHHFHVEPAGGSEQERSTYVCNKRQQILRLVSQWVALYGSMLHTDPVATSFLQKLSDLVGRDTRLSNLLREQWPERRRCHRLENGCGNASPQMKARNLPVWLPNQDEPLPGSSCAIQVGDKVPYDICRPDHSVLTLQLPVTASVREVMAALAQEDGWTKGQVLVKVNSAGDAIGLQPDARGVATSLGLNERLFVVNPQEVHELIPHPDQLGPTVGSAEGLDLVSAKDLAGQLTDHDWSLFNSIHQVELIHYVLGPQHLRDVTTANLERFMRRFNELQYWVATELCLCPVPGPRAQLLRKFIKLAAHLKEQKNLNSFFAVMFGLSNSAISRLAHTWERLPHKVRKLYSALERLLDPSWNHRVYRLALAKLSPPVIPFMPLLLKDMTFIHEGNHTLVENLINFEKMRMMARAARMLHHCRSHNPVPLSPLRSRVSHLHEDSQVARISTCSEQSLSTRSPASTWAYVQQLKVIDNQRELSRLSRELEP
- EXPERIMENT DESCRIPTION: Counterscreen qHTS for agonist of cAMP-regulated guanine nucleotide exchange factor 3 (EPAC1) (AID 1645889); also: % of control where 0% means no effect; nearly all actives have a fitted effect of over 40% in size
- STATED CONDITIONS: EPAC1 Rap1B-BODIPY-GDP exchange, fluorescence; series mostly up to 154 µM
Records with an inconclusive call do not appear. The source made the active and inactive calls. Calls follow the shape of the dose curve; as a rule, active = well fitted activation curve with a large enough effect; inconclusive = small, poorly fitted or top-dose-only effect, or another doubt; inactive = no such curve, though single readings can be large or run the other way.
MEASURED PROPERTY: activation

Form field: activation recorded for CC(C)CC1C(=O)N(Cc2cn(CCC3OCCCO3)nn2)CCS(=O)(=O)N1Cc1ccc(-c2ccccc2)cc1 (stereo unspecified) with Rap guanine nucleotide exchange factor 3 (Homo sapiens) (UniProt O95398) (enter value) inactive

Find the measured activation: item COc1ccccc1-n1c(-c2ccccc2)c[n+]2c1CCc1ccccc1-2 , target or system Rap guanine nucleotide exchange factor 3 (Homo sapiens) (UniProt O95398). inactive

Item Cc1ccc(S(=O)(=O)N2[C@@H](c3ccc(Br)cc3)C(C(=O)O)=CC[C@H]2c2ccc(Cl)cc2)cc1 with Rap guanine nucleotide exchange factor 3 (Homo sapiens) (UniProt O95398) - activation? inactive

What measured activation is associated with CCOc1ccc(N2C(=O)Nc3ccccc3C2(O)C(=O)NCc2ccc(C)cc2)cc1 (stereo unspecified) on Rap guanine nucleotide exchange factor 3 (Homo sapiens) (UniProt O95398)? 7.84% [at 30.8 µM] (inactive)

Lab request: please report activation under test system Rap guanine nucleotide exchange factor 3 (Homo sapiens) (UniProt O95398) for CC(=O)C1=C(O)C(=O)N(c2cccc(Br)c2)C1c1ccc(Br)cc1 (stereo unspecified) inactive

Would you be so kind as to report activation for each listed record?
1. COCCCn1c(=O)/c(=C\c2ccc(OC(F)F)c(OC)c2)s/c1=C(/C#N)C(N)=O
2. CCCc1cc(=O)oc2c3c(cc(OCC(=O)NCc4ccccn4)c12)OC(C)(C)CC3
3. CCOCCCn1c(=N)c(C(=O)NC(C)c2ccccc2)cc2c(=O)n3cccc(C)c3nc21 (stereo unspecified)
4. O=c1ccc(-c2ccccc2)nn1Cc1c(F)cccc1Cl

1: inactive; 2: inactive; 3: inactive; 4: inactive

# batch: return activation for each of the 2 compounds below
1. CN1CCN(S(=O)(=O)c2ccc(Nc3ccc(F)cc3)nc2)CC1
2. O=C(O)c1cccc(N/N=C/c2cc(Br)cc(Br)c2O)c1

1: 16.5% [at 30.8 µM] (inactive); 2: inactive

Please report activation for every entry that follows.
1. COc1cccc(OC)c1C(=O)Nc1ccccc1Sc1ccccc1
2. Cc1cc2nc3c(=O)n(CCc4ccccc4)c(=O)[nH]c3nc2cc1N
3. N#CC(C(=O)NCc1ccco1)c1nc2ccccc2nc1N1CCOCC1 (stereo unspecified)
4. OC1C2CN3CCN(C2)CC1(Cc1ccccc1)C3 (stereo unspecified)
5. COc1ccc(C(=O)Nc2cc(OC)c(Cl)cc2OC)cc1
6. Cc1cn2c(=O)cc(COc3ccc(C(C)(C)C)cc3)nc2s1

1. inactive
2. 15.2% [at 30.8 µM] (inactive)
3. 19.4% [at 30.8 µM] (inactive)
4. 28.2% [at 30.8 µM] (inactive)
5. 10.3% [at 30.8 µM] (inactive)
6. inactive
